Data credit: ChEMBL document CHEMBL5108036

# test-name: Hemolytic activity in human RBC measured after 1 hr by microplate reader method
# Type: toxicity, cell-based, Erythrocyte
# reported-conditions: human, human red blood cells (erythrocytes)
Reported EC50 at 1 h values follow for various compounds
A number alone suffices; assume µg/mL.

| compound | EC50 at 1 h / µg/mL |
| --- | --- |
| NCCCN1C(=O)N(CCCN)C(=O)C(Cc2cc(Br)cc(Br)c2)(Cc2cc(Br)cc(Br)c2)C1=O.O=C(O)C(F)(F)F.O=C(O)C(F)(F)F | 99 |

Task item: Data request, read-out EC50 at 1 h, for N=C(N)NCCCCN1C(=O)N(CCCCNC(=N)N)C(=O)C(Cc2cc(Br)cc(Br)c2)(Cc2ccc(Br)c3ccccc23)C1=O.O=C(O)C(F)(F)F.O=C(O)C(F)(F)F (stereo not drawn)
Reply: 58
